# protocol_notes: LogD measurement (octanol-water)
# Format: physicochemical
# condition_notes: supplement; read-out: measured logD
Rule for this label: T means logD at 24 h is less than 2; F means logD at 24 h is at least 2.

compound_structure=c1ccc(Nc2nc(-c3ccccn3)ns2)nc1 category_label=T
compound_structure=Cc1cccnc1Nc1nc(-c2cnc(OC(C)C)cn2)ns1 category_label=F
compound_structure=CC(C)Oc1ccc(-c2nsc(N(C)c3ncccc3C(C)C)n2)nc1 category_label=F
compound_structure=CN1CCC(Oc2ccc(Nc3nc(-c4ccccn4)ns3)nc2)CC1 category_label=T
compound_structure=CC(=O)N(C)c1cnc(Nc2nc(-c3ccc(OC(C)C)cn3)ns2)c(C)c1 category_label=F
compound_structure=CC(=O)N(C)c1cccnc1Nc1nc(-c2cc(C(F)(F)F)c(OC(C)C)cn2)ns1 category_label=F
compound_structure=Cc1cccnc1Nc1nc(-c2ccc(C#N)cn2)ns1 category_label=F
compound_structure=CC(=O)N(C)c1cc(C(F)(F)F)cnc1Nc1nc(-c2cc(OC(C)C)ccn2)ns1 category_label=F

----------
# protocol_notes: Liver S9 metabolic stability assay, rat
# Format: in vitro ADME
# condition_notes: 3 μM, 60 min
parameter_measured: Rat S9 metabolic stability (% remaining)

compound_structure=Cc1cccnc1Nc1nc(-c2ccc(OC3CCOCC3)cn2)ns1 parameter_measured="Rat S9 metabolic stability" data_value=82
compound_structure=Cc1cccnc1Nc1nc(-c2cc(C(=O)N(C)C)ccn2)ns1 parameter_measured="Rat S9 metabolic stability" data_value=78
compound_structure=c1ccc(Nc2nc(-c3ccccn3)ns2)nc1 parameter_measured="Rat S9 metabolic stability" data_value=83
compound_structure=CC(C)c1ccnc(-c2nsc(Nc3ncccc3C(F)(F)F)n2)c1 parameter_measured="Rat S9 metabolic stability" data_value=27
compound_structure=COc1ccc(Nc2nc(-c3ccccn3)cs2)nc1 parameter_measured="Rat S9 metabolic stability" data_value=51
compound_structure=Cc1cccnc1Nc1nc(-c2ccc(C#N)cn2)ns1 parameter_measured="Rat S9 metabolic stability" data_value=73
compound_structure=Cc1cccnc1Nc1nc(-c2cc(C3CCN(C)CC3)ccn2)ns1 parameter_measured="Rat S9 metabolic stability" data_value=81
compound_structure=CC(C)c1cnc(Nc2nc(-c3ncccc3OC3CC3)ns2)cc1C(F)(F)F parameter_measured="Rat S9 metabolic stability" data_value=93
compound_structure=Cc1cccnc1Nc1nc(-c2ccc(C(=O)N(C)C)cn2)ns1 parameter_measured="Rat S9 metabolic stability" data_value=94
compound_structure=CN(C)c1cccnc1Nc1nc(-c2ccc(OC3CC3)cn2)ns1 parameter_measured="Rat S9 metabolic stability" data_value=91

----------
# protocol_notes: Kinetic solubility measurement
# Assay type: physicochemical
# condition_notes: 10 mM DMSO stock solutions
Below, each entry is listed alongside its reported log10 of solubility kinetic at 24 h.
parameter_measured: log10 of solubility kinetic at 24 h (log10 of the value in µM)

compound_structure=COc1cccnc1Nc1nc(-c2cc(C)ccn2)ns1 parameter_measured="log10 of solubility kinetic at 24 h" data_value=1.42
compound_structure=c1ccc(Nc2nc(-c3ccccn3)ns2)nc1 parameter_measured="log10 of solubility kinetic at 24 h" data_value=0.91
compound_structure=CC(=O)N(C)c1cccnc1Nc1nc(-c2cc(C(F)(F)F)c(OC(C)C)cn2)ns1 parameter_measured="log10 of solubility kinetic at 24 h" data_value=1.03
compound_structure=CC(C)Oc1ccc(-c2nsc(N(C)c3ncccc3C(C)C)n2)nc1 parameter_measured="log10 of solubility kinetic at 24 h" data_value=2.08
compound_structure=CC(C)Oc1ccc(-c2nsc(Nc3ncccc3C(N)=O)n2)nc1 parameter_measured="log10 of solubility kinetic at 24 h" data_value=-0.52
compound_structure=Cc1cccnc1Nc1nc(-c2ccc(OC3CC4(C3)CN(C3CC3)C4)cn2)ns1 parameter_measured="log10 of solubility kinetic at 24 h" data_value=1.12
compound_structure=Cc1cccnc1Nc1nc(-c2ccc(OC3CCOCC3)cn2)ns1 parameter_measured="log10 of solubility kinetic at 24 h" data_value=0.86
compound_structure=CC(C)Oc1cc(-c2nsc(Nc3ncccc3N(C)C)n2)ncc1C(F)(F)F parameter_measured="log10 of solubility kinetic at 24 h" data_value=0.16
compound_structure=Cc1cccnc1Nc1nc(-c2ccc(OC3CCOCC3)cn2)no1 parameter_measured="log10 of solubility kinetic at 24 h" data_value=1.76

----------
# protocol_notes: Liver microsome metabolic stability assay, mouse
# Assay type: in vitro ADME
# condition_notes: Tables 2 and 3; footnote: tested in the mouse liver microsome assay; 3 μM, 30 min
parameter_measured: Rat Microsomes (% remaining)

compound="CC(C)Oc1cnc(-c2nsc(Nc3ncccc3N(C)C)n2)cc1C(F)(F)F [Compound 34]" parameter_measured="Rat Microsomes" display_unit="% remaining" data_value=93
compound="CC(C)Oc1cnc(-c2nsc(Nc3ncccc3C(C)C)n2)cc1C(F)(F)F [Compound 24]" parameter_measured="Rat Microsomes" display_unit="% remaining" data_value=96
compound="Cc1cccnc1Nc1nc(-c2cc(C(=O)N(C)C)c(OC(C)C)cn2)ns1 [Compound 17]" parameter_measured="Rat Microsomes" display_unit="% remaining" data_value=90

----------
# protocol_notes: LogD measurement (octanol-water)
# Format: physicochemical
# condition_notes: pH 7.4; read-out: logD
Below, each entry is listed alongside its reported logD at 24 h.
parameter_measured: logD at 24 h

compound_structure=CC(C)Oc1cc(-c2nsc(Nc3ncccc3N(C)C)n2)ncc1C(F)(F)F data_value=3
compound_structure=CC(C)Oc1ccc(-c2nsc(Nc3ncccc3N(C)C(=O)C3CC3)n2)nc1 data_value=2.4
compound_structure=CC(=O)N(C)c1cccnc1Nc1nc(-c2cc(C(F)(F)F)c(OC(C)C)cn2)ns1 data_value=3.5
compound_structure=CNC(=O)c1cccnc1Nc1nc(-c2ccc(OC(C)C)cn2)ns1 data_value=1.8
compound_structure=Cc1cccnc1Nc1nc(-c2ccc(OC(C)C)cn2)ns1 data_value=2.88

----------
# protocol_notes: Liver microsome metabolic stability assay, human
# Type: in vitro ADME
# condition_notes: 3 μM, 30 min
parameter_measured: Human Microsomes (% remaining)

compound_structure=Cc1cccnc1Nc1nnc(-c2ccc(OC3CCOCC3)cn2)s1 parameter_measured="Human Microsomes" data_value=100
compound_structure=Cc1cccnc1Nc1nc(-c2cc(C(=O)N(C)C)c(OC(C)C)cn2)ns1 parameter_measured="Human Microsomes" data_value=91
compound_structure=Cc1cccnc1Nc1nnc(-c2ccc(OC3CCOCC3)cn2)o1 parameter_measured="Human Microsomes" data_value=83
compound_structure=COc1ccc(Nc2nc(-c3ccccn3)ns2)nc1 parameter_measured="Human Microsomes" data_value=90

----------
# protocol_notes: Mouse pharmacokinetics
# Format: in vivo
# condition_notes: brain and plasma; male CD-1 mouse, PO 30 mg/kg, based on AUC0-t; read-out: brain/plasma [b]/[p]
parameter_measured: Kp

compound_structure=CC(=O)N(C)c1cccnc1Nc1nc(-c2ccc(OC(C)C)cn2)ns1 parameter_measured=Kp data_value=0.08

----------
# system_name: hERG (Homo sapiens, UniProt Q12809)
# Construct: expressed in transfected cells
# Sequence (Q12809 whole entry): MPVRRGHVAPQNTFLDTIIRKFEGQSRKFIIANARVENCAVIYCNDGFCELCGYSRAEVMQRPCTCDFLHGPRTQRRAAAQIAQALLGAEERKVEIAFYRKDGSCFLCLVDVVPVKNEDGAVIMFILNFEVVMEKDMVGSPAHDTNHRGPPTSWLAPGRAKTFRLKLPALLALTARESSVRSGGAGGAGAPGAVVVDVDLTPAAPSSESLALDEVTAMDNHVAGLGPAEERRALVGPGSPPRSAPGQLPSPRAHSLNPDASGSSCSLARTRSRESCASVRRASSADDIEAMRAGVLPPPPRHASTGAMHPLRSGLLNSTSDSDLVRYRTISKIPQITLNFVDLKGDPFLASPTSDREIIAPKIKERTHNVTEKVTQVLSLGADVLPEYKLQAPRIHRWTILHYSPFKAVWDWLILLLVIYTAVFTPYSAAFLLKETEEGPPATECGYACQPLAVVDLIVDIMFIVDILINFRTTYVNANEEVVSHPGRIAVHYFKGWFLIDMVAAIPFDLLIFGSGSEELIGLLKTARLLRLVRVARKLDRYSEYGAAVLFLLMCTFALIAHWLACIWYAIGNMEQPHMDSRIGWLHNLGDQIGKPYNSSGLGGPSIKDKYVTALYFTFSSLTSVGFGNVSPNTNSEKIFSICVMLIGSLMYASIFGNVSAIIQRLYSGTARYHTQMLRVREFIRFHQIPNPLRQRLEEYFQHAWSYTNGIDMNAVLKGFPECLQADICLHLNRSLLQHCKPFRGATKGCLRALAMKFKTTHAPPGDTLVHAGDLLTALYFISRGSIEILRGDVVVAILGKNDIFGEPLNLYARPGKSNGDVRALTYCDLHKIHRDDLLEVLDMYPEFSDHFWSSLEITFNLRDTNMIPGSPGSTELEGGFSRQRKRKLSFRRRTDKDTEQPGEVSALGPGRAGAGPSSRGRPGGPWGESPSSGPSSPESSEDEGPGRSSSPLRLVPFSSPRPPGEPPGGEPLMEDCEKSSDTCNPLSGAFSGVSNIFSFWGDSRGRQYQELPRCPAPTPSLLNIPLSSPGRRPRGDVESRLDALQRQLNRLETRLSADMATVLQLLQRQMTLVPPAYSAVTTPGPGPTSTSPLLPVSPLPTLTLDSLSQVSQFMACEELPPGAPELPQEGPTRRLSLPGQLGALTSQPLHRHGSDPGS
# protocol_notes: hERG inhibition
# Type: cell-based
# condition_notes: human
pIC50: −log10 of the molar value.
parameter_measured: pIC50

compound="CC(=O)N(C)c1cccnc1Nc1nc(-c2ccc(OC(C)C)cn2)ns1 [Compound 47]" readout_qualifier=< data_value=4.52
compound="CC(C)Oc1ccc(-c2nsc(Nc3ncccc3N(C)C)n2)nc1 [Compound 31]" readout_qualifier== data_value=4.94

----------
# protocol_notes: Liver S9 metabolic stability assay, human
# Format: in vitro ADME
# condition_notes: 3 μM, 60 min
Rule for this label: rule met means Human S9 metabolic stability is less than 80 % remaining; rule not met means Human S9 metabolic stability is at least 80 % remaining.

compound="Cc1cccnc1Nc1nc(-c2ccc(OC3CCN(C4CC4)CC3(F)F)cn2)ns1 (stereo not shown)" category_label="rule met"
compound=COc1cccnc1Nc1nc(-c2cc(C)ccn2)ns1 category_label="rule met"
compound=CC(C)c1ccnc(-c2nsc(Nc3cc(C(F)(F)F)ccn3)n2)c1 category_label="rule met"
compound=Cc1cccnc1Nc1nc(-c2ccc(C(=O)N(C)C)cn2)ns1 category_label="rule not met"
compound=Cc1cccnc1Nc1nc(-c2cc(C(=O)N(C)C)ccn2)ns1 category_label="rule not met"
compound=Cc1cccnc1Nc1nc(-c2ccc(OC3CCN(C4CC4)CC3)cn2)ns1 category_label="rule not met"
compound=c1ccc(Nc2nc(-c3ccccn3)ns2)nc1 category_label="rule not met"
compound=CN(C)c1cccnc1Nc1nc(-c2ccc(OC3CC3)cn2)ns1 category_label="rule not met"
compound=Cc1cccnc1Nc1nc(-c2ccc(OC3CC3)cn2)ns1 category_label="rule met"
compound=Cc1cccnc1Nc1nc(-c2ccc(OC(C)C)cn2)ns1 category_label="rule not met"
compound=Cc1cccnc1Nc1nc(-c2ccc(OC3CC4(C3)CN(C3CC3)C4)cn2)ns1 category_label="rule met"
compound=CC(C)Oc1cc(-c2nsc(Nc3ncccc3N(C)C)n2)ncc1C(F)(F)F category_label="rule not met"
compound=Cc1cccnc1Nc1nc(-c2ccc(OC3CCOCC3)cn2)ns1 category_label="rule not met"
compound=Cc1cccnc1Nc1nc(-c2ccc(OC3CCOCC3)cn2)no1 category_label="rule not met"
compound=CC(C)c1cccnc1Nc1nc(-c2ccc(OC3CC3)cn2)ns1 category_label="rule met"
compound=CN1CCC(Oc2ccc(Nc3nc(-c4ccccn4)ns3)nc2)CC1 category_label="rule not met"
compound=CC(C)c1cnc(Nc2nc(-c3ncccc3OC3CC3)ns2)cc1C(F)(F)F category_label="rule not met"
compound=COc1cccnc1Nc1nc(-c2ccc(OC(C)C)cn2)ns1 category_label="rule not met"
